- Tested on: 935938-334-R-J1-PDC complex spheroid viability;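 further: spheroids exposed to drugs for seven days before viability read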
- Experimental Details: Anticancer human tumor 935938-334-R-J1-PDC patient-derived small intestine adenocarcinoma cell line growth inhibition [POLQ]; active means viability on the fitted dose curve at most 10% of control; inactive means the rest
- Condition Context: second compound 10 µM; first compound 10 µM
Outcome codes: active, inactive

{"columns": ["Compound", "Classification"],
 "data": [
  ["O=c1[nH]cc(F)c(=O)[nH]1 + COC1C(OC(N)=O)C(O)C(Oc2ccc3c(O)c(NC(=O)c4ccc(O)c(CC=C(C)C)c4)c(=O)oc3c2C)OC1(C)C", "inactive"],
  ["CC1COCCN1c1cc(C2(S(C)(=N)=O)CC2)nc(-c2ccnc3[nH]ccc23)n1 (stereo not given) + COC1C(OC(N)=O)C(O)C(Oc2ccc3c(O)c(NC(=O)c4ccc(O)c(CC=C(C)C)c4)c(=O)oc3c2C)OC1(C)C", "inactive"],
  ["CCc1cc2c(N3CCc4c(cc(Cn5ccnc5)cc4-c4cn(C)nc4C(F)(F)F)C3=O)ccnc2c(OC)n1 + COC1C(OC(N)=O)C(O)C(Oc2ccc3c(O)c(NC(=O)c4ccc(O)c(CC=C(C)C)c4)c(=O)oc3c2C)OC1(C)C", "inactive"],
  ["COc1cccc2c1C(=O)c1c(O)c3c(c(O)c1C2=O)CC(O)(C(=O)CO)CC3OC1CC(N)C(O)C(C)O1 (stereo not given) + COC1C(OC(N)=O)C(O)C(Oc2ccc3c(O)c(NC(=O)c4ccc(O)c(CC=C(C)C)c4)c(=O)oc3c2C)OC1(C)C", "inactive"],
  ["COc1cccc2c1C(=O)c1c(O)c3c(c(O)c1C2=O)CC(O)(C(=O)CO)CC3OC1CC(N)C(O)C(C)O1 (stereo not given) + Cc1cccc(N(C)C(=O)C2C(O)CCN2c2nc(C)cc(C(F)(F)F)c2C#N)c1", "active"],
  ["CC1COCCN1c1cc(C2(S(C)(=N)=O)CC2)nc(-c2ccnc3[nH]ccc23)n1 (stereo not given) + Cc1cccc(N(C)C(=O)C2C(O)CCN2c2nc(C)cc(C(F)(F)F)c2C#N)c1", "inactive"],
  ["C#Cc1c(F)ccc2cc(O)cc(-c3ncc4c(N5CC6CCC(C5)N6)nc(OCC56CCCN5CC(F)C6)nc4c3F)c12 (stereo not given) + Nc1ccc(C#CCN(C(=O)Cc2ncc(C(F)(F)F)cc2C(F)(F)F)c2ccc(F)cc2)nn1", "inactive"],
  ["O=C(Nc1ccc(O)c(NS(=O)(=O)c2ccc(F)cc2)c1)c1ccc(-c2ccccc2)cc1 + Cc1cccc(N(C)C(=O)C2C(O)CCN2c2nc(C)cc(C(F)(F)F)c2C#N)c1", "inactive"],
  ["CCc1cc2c(N3CCc4c(cc(Cn5ccnc5)cc4-c4cn(C)nc4C(F)(F)F)C3=O)cc(C)nc2c(OC)n1 + Cc1cccc(N(C)C(=O)C2C(O)CCN2c2nc(C)cc(C(F)(F)F)c2C#N)c1", "inactive"],
  ["CC1COCCN1c1cc(C2(S(C)(=N)=O)CC2)nc(-c2ccnc3[nH]ccc23)n1 (stereo not given) + Nc1ccc(C#CCN(C(=O)Cc2ncc(C(F)(F)F)cc2C(F)(F)F)c2ccc(F)cc2)nn1", "inactive"]
]}
